Each recorded value in this set is attributed to patent US20040072738A1.

# experiment_notes: cytotoxic activity in the L1210 assays
Bridge positions count the residues as written; N and C are the ends. Square brackets hold non-standard residues; d marks the D form. Peptide text beside a SMILES is read from it. I, II: the chains in the order shown. * marks the point of attachment. Quinaldoyl(3-OH) = O=C(c1nc2ccccc2cc1O)*; NMeC = CN[C@@H](CS)C(=O)O; NMeDha = C=C(NC)C(=O)O
reported_property: pIC50
pIC50 here: minus log base 10 of the concentration, concentration in moles per litre.

# input Give its pIC50 value. Item: C=C1C(=O)SC[C@@H](NC(=O)c2nc3ccccc3cc2O)C(=O)NCC(=O)N(C)[C@H]2CSSC[C@@H](C(=O)N1C)N(C)C(=O)CNC(=O)[C@H](NC(=O)c1nc3ccccc3cc1O)CSC(=O)C(=C)N(C)C2=O [BE-22179] (I: {Quinaldoyl(3-OH)}-[dC]G[NMeC][NMeDha] / II: {Quinaldoyl(3-OH)}-[dC]G[NMeC][NMeDha]; thioester I:1-II:C, I:C-II:1; disulfide I:3-II:3)
# output 9.40

----------
# System: L1210 cell line
# experiment_notes: cytotoxic activity in the L1210 assays
# run_conditions: read-out: IC50 cytotoxic activity; L1210 cell line
Bridge positions count the residues as written; N and C are the ends. Square brackets hold non-standard residues; d marks the D form. Peptide text beside a SMILES is read from it. I, II: the chains in the order shown. * marks the point of attachment. Quinaldoyl(3-OH) = O=C(c1nc2ccccc2cc1O)*; NMeC = CN[C@@H](CS)C(=O)O
reported_property: pIC50
pIC50 here: minus log base 10 of the concentration, concentration in moles per litre.

# input Give its pIC50 value. Item: CSC[C@H]1C(=O)SC[C@@H](NC(=O)c2nc3ccccc3cc2O)C(=O)NCC(=O)N(C)[C@H]2CSSC[C@@H](C(=O)N1C)N(C)C(=O)CNC(=O)[C@H](NC(=O)c1nc3ccccc3cc1O)CSC(=O)[C@H](CSC)N(C)C2=O [Thiocoraline] (I: {Quinaldoyl(3-OH)}-[dC]G[NMeC][NMeC](Me) / II: {Quinaldoyl(3-OH)}-[dC]G[NMeC][NMeC](Me); thioester I:1-II:C, I:C-II:1; disulfide I:3-II:3)
# output 9.70
